experiment: gradient 5% acetonitrile 3 min, to 50% in 2 min, to 85% in 15 min, held 3 min, 100 µL/min; details: column: Zorbax Extend-C18 2.1 x 50 mm; eluents: water / acetonitrile, 0.1% formic acid

compound	RP-LC retention time
CN1c2cc(Cl)ccc2C(=O)NC12CCN(C(=O)NCc1ccccc1)CC2	795 s
CCCCOc1ccc(C(=O)N2CCN(c3cc(C)nc(N4CCOCC4)n3)CC2)cc1	720 s
Cc1ccc(-c2cn3ccn(-c4ccc(Cl)cc4)c(=O)c3n2)cc1	905 s
COc1cc(-c2nnc(SCC(=O)N3CCCCC3C)o2)cc(OC)c1OC (stereo not given)	867 s
Clc1ccc(-c2noc(CN3CCOCC3)n2)cc1	775 s

====

Recorded RP-LC retention time, one value per entry.
experiment: gradient 5% acetonitrile 3 min, to 50% in 2 min, to 85% in 15 min, held 3 min, 100 µL/min; conditions: column: Zorbax Extend-C18 2.1 x 50 mm; eluents: water / acetonitrile, 0.1% formic acid

compound	unit-abbreviation	RP-LC retention time
Cc1c(Cl)cccc1S(=O)(=O)Nc1ccc(Cn2cncn2)cc1	s	775
CCOc1ccc(NC(=O)Cn2nc(N3CCOCC3)c3ccccc3c2=O)cc1	s	774
CC(C)N1C(=O)c2cccnc2Sc2cc(NC(=O)C3(c4ccccc4)CC3)ccc21	s	1020
COc1cccc(CCC(=O)N2CCN(C3=NC=CN4CC(C)N=C34)CC2)c1 (centres undefined)	s	591
COc1ccc(NC(=O)N2CCN(c3nc4ccccc4n3C)CC2)cc1OC	s	610
Cc1ccc(NC(=O)N2CCN(c3nc4cccnc4n(C)c3=O)CC2)cc1Cl	s	951
COc1ccc(C(=O)N2CC(n3cc(COCC4CC4)nn3)C2)cc1F	s	620
Cc1ccc(Nc2nc(C)cc(N3CCN(C(=O)C4CCCCC4)CC3)n2)cc1	s	734
Cc1cc(C)cc(NC(=O)N(C)Cc2nc3cc(C(=O)N(C)C)ccc3n2C)c1	s	639

====

Recorded RP-LC retention time, one value per entry.
test: gradient 5% acetonitrile 3 min, to 50% in 2 min, to 85% in 15 min, held 3 min, 100 µL/min; details: column: Zorbax Extend-C18 2.1 x 50 mm; eluents: water / acetonitrile, 0.1% formic acid

compound	RP-LC retention time / s
Cc1cccc(-c2noc(CN3N=NC4C(=O)N(c5ccc(F)cc5)C(=O)C43)n2)c1 (centres undefined)	1020
COc1cccc(-c2c(C(=O)O)nnn2-c2ccc3c(c2)OCO3)c1	743
CCOC(=O)c1ccc(N2CC3=C(C2=O)C(c2ccc(OC)cc2)NC(=O)N3C)cc1 (centres undefined)	878
C=CCN(Cc1nc(-c2cccc(C)c2)no1)C(=O)Nc1ccccc1C	1080
CCn1cc(CCNC(=O)Nc2cccc(C)c2C)c2cccnc21	720
CCc1nnc(-c2ccc(S(=O)(=O)N3CCC(C)CC3)o2)o1	920
O=C(c1ccoc1)N1CCC(Cc2noc(C3CC3)n2)C1 (centres undefined)	695
CCOc1ccccc1N1CCN(C(=O)c2sc3ncccc3c2-n2cccc2)CC1	1040
O=C(C1CCN(c2cnn(Cc3ccccc3)c(=O)c2)C1)N1CCCC1 (centres undefined)	683
CC(C)C(NC(=O)Nc1ccc2c(c1)OCCO2)C(=O)N1CCc2ccccc21 (centres undefined)	609
O=c1ccc(S(=O)(=O)N2CCOCC2)cn1Cc1ccccc1F	723
CC(c1ccccc1)N1CC(=O)N(c2cccc(Cl)c2)[C@@H]2CS(=O)(=O)C[C@@H]21 (some centres undefined)	894
O=C(CCSc1ccccc1)Nc1cc(-c2cccs2)nn1CCO	793
COCCNC(=O)C(=O)NCCc1cccc(OC)c1	650
O=C(CN1C(=O)CCc2cc(Br)ccc21)N1CCN(c2ccccc2F)CC1	951
Cc1ccc2c(c1)N(C)N=C(C(=O)N1CCCCCC1)S2(=O)=O	839
CC(C)(C)C(=O)Nc1cnc(-c2ccc(F)cc2)nc1	960
Cn1nc(CNC(=O)C2CC(=O)N(C3CCCCC3)C2)c2c1CCN(S(C)(=O)=O)C2 (centres undefined)	645
CCOc1ccc(NC(=O)C2CCN(S(=O)(=O)c3ccc4c(c3)sc(=O)n4CC)CC2)cc1	924
CCCS(=O)(=O)c1nc2ccc(NS(=O)(=O)c3ccc(F)c(F)c3)cc2s1	973
CCc1nc2c(c(=O)n1CC(=O)Nc1ccccc1OC)CN(Cc1ccccc1)CC2	650
Cn1cccc1-c1cc2n(n1)CCC(=O)N2CCCC(=O)NCCCN1CCCCCC1	607
COc1ccc(-c2ncccc2CNS(=O)(=O)c2cccc(C#N)c2)cc1	660
CCc1nc2c(NC(=O)c3ccccc3)cccn2n1	792
CC(C)NC(=O)c1ccc(OCC2CCN(C(=O)Cc3ccc(Cl)cc3)CC2)cc1	927
c1cncc(-c2nnc3sc(-c4ccc5c(c4)OCCO5)nn23)c1	827
COC(=O)c1cccc(Nc2c(-c3cccc(Cl)c3)nc3cnccn23)c1	905
O=C1CS(=O)C2(CCN(S(=O)(=O)Cc3ccccc3)CC2)N1CC1CC1 (centres undefined)	713
CCc1cccc(NS(=O)(=O)c2cc(-c3[nH]ncc3C(=O)N(C)C)oc2C)c1	718
O=C(Nc1ccc(C2(C(=O)O)CCC2)cc1)C1CC1	710
Cc1noc(C)c1S(=O)(=O)N1CCCN(S(=O)(=O)c2ccccc2)CCC(=O)NCC1	752
CCCCc1ccc(NC(=O)Cn2cnc3nc(N4CCCC(C(=O)NCC)C4)sc3c2=O)cc1 (centres undefined)	801
CCOC(=O)c1[nH]c(C)c(CCC(=O)N2CCC(C(=O)N3CCCCC3)CC2)c1C	737
CC1CN(Cc2nc3c(c(=O)n(C)c(=O)n3C)n2Cc2ccccc2Cl)CC(C)O1 (centres undefined)	751
O=C1CN(C(=O)CN2CCCCC2)C(c2ccccc2)c2cc(Br)ccc2N1 (centres undefined)	656
Cc1ccc(NC(=O)c2cc(C(C)C)n(C3CCS(=O)(=O)C3)n2)cc1 (centres undefined)	901
Clc1ccc(-c2cc3c(N4CCN(C5CCCCC5)CC4)nccn3n2)cc1	806
CC(C)NC(=O)c1ccc(OCC2CCN(C(=O)c3cccs3)CC2)cc1	757
CCSc1nnc(-c2nn(C)c3c2CN(S(=O)(=O)Cc2ccccc2F)CC3)n1CC	905
